targetOrSystem: DLL4 (human, UniProt Q9NR61)
Sequence (Q9NR61 27-524): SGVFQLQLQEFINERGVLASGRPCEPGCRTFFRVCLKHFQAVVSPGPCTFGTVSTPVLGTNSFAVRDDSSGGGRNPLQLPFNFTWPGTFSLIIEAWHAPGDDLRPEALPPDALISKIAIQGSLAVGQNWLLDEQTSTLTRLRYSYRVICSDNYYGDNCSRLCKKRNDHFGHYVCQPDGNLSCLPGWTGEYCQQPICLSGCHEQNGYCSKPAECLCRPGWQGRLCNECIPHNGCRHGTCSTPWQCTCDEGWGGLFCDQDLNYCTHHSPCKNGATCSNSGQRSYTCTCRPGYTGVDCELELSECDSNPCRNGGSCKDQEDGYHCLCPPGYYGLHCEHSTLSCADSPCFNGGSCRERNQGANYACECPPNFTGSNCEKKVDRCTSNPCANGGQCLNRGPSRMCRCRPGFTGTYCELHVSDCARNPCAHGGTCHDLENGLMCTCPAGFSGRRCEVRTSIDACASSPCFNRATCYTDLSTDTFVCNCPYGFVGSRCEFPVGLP
assayExplanation: ELISA
metricName: EC50 (nM)
Return type: number; implicit unit nM.

binder: DVD520 DLL4 arm (antibody, V domains shown, DVD-Ig inner) VH: EVQLQQSGPELEKPGASVKISCKASGYSFTGYNMNWVKQSNGKSLEWIGNIDPYFGGTNYNQKFKGKATLTVDKSSSTAYMQLKSLTSEDSAVYYCARNYDYDGGCFDYWGQGTTLTVSS VL: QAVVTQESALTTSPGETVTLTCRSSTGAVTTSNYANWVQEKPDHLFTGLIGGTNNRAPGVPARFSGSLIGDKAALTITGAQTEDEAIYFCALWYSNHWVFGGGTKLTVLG
metricName: EC50
measured: 17.3

Read the next record carefully.
Challenge: May I ask what EC50 has been recorded for DVD044 DLL4 arm (antibody, DVD-Ig outer) chain 1: EVQLVESGGGLVQPGGSLRLSCAASGFTFTDNWISWVRQAPGKGLEWVGYISPNSGFTYYADSVKGRFTISADTSKNTAYLQMNSLRAEDTAVYYCARDNFGGYFDYWGQGTLVTVSS chain 2: DIQMTQSPSSLSASVGDRVTITCRASQDVSTAVAWYQQKPGKAPKLLIYSASFLYSGVPSRFSGSGSGTDFTLTISSLQPEDFATTYYCQQSYTGTVTFGQGTKVEIKR ?
Response given: 0.25

Every entry's value here was drawn from patent US9029508.
